Here the recorded inhibition in vivo at 1 mg/kg is given for each entry.
Tested on: Rattus norvegicus
Test: Antiallergic activity against passive cutaneous anaphylaxis (PCA) in male Sprague-Dawley rats after 1.0 mg/kg oral administration;p<0.1
Assay type: functional

| smiles_structure | target_or_system | inhibition in vivo at 1 mg/kg / % |
| --- | --- | --- |
| CCCCc1ccc(-c2cc(C)cc(C(=O)Nc3nn[nH]n3)n2)cc1 | Rattus norvegicus | 42 |
| CCCOc1cc(C(=O)Nc2nn[nH]n2)nc(-c2ccccc2)c1 | Rattus norvegicus | 27 |
| COc1cc(C(=O)Nc2nn[nH]n2)nc(-c2ccc(N)cc2)c1 | Rattus norvegicus | 50 |
| COc1cc(C(=O)Nc2nn[nH]n2)nc(-c2cccc(N)c2)c1 | Rattus norvegicus | 27 |
| O=C(Nc1nn[nH]n1)c1cccc(-c2ccccc2)n1 | Rattus norvegicus | 36 |
